Provenance of the data: patent US20210130436A1

- experimental.system: PD-1 (PDCD1) (Homo sapiens (Human)) (UniProt Q15116)
- Sequence (Q15116 21-288): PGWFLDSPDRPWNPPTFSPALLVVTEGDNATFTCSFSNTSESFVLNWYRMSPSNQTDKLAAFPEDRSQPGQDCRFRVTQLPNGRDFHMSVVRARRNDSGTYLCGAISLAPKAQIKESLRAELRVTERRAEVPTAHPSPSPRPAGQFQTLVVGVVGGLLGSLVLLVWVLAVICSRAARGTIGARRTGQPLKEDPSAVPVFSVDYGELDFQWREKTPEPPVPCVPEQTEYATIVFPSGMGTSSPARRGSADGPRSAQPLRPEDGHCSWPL
- measurement.description: cell-based or functional assay
endpoint.name: IFN gamma levels pg/mL (MLR) (pg/mL)

binder	IFN gamma levels pg/mL (MLR) [pg/mL]
PD-L2 H15Q/T47A/Q72H/R76G/I86T IgV-Fc (Fc fusion, not shown: a dimerising Fc or GST) LFTVTVPKELYIIEQGSNVTLECNFDTGSHVNLGAITASLQKVENDASPHRERATLLEEQLPLGKASFHIPHVQVGDEGQYQCIITYGVAWDYKYLTLKVKA	1600
PD-L2 H15Q/S67L/I86T IgV-Fc (Fc fusion, not shown: a dimerising Fc or GST) LFTVTVPKELYIIEQGSNVTLECNFDTGSHVNLGAITASLQKVENDTSPHRERATLLEEQLPLGKALFHIPQVQVRDEGQYQCIITYGVAWDYKYLTLKVKA	1030
PD-L2 H15Q/Q82R/V89D IgV-Fc (Fc fusion, not shown: a dimerising Fc or GST) LFTVTVPKELYIIEQGSNVTLECNFDTGSHVNLGAITASLQKVENDTSPHRERATLLEEQLPLGKASFHIPQVQVRDEGQYRCIIIYGDAWDYKYLTLKVKA	1080
PD-L2 I13V/S39I/E44D/Q82R/V89D IgV-Fc (Fc fusion, not shown: a dimerising Fc or GST) LFTVTVPKELYIVEHGSNVTLECNFDTGSHVNLGAITAILQKVDNDTSPHRERATLLEEQLPLGKASFHIPQVQVRDEGQYRCIIIYGDAWDYKYLTLKVKA	936
PD-L2 H15Q/N18D/T47A/Q72H/V73A/R76G/I86T/V89D IgV-Fc (Fc fusion, not shown: a dimerising Fc or GST) LFTVTVPKELYIIEQGSDVTLECNFDTGSHVNLGAITASLQKVENDASPHRERATLLEEQLPLGKASFHIPHAQVGDEGQYQCIITYGDAWDYKYLTLKVKA	1070
PD-L2 H15Q/T47A/H69L/Q82R/V89D IgV-Fc (Fc fusion, not shown: a dimerising Fc or GST) LFTVTVPKELYIIEQGSNVTLECNFDTGSHVNLGAITASLQKVENDASPHRERATLLEEQLPLGKASFLIPQVQVRDEGQYRCIIIYGDAWDYKYLTLKVKA	1730
PD-L2 E44D/V89D/W91R IgV-Fc (Fc fusion, not shown: a dimerising Fc or GST) LFTVTVPKELYIIEHGSNVTLECNFDTGSHVNLGAITASLQKVDNDTSPHRERATLLEEQLPLGKASFHIPQVQVRDEGQYQCIIIYGDARDYKYLTLKVKA	1560
PD-L2 I13V/H15Q/Q82R/V89D IgV-Fc (Fc fusion, not shown: a dimerising Fc or GST) LFTVTVPKELYIVEQGSNVTLECNFDTGSHVNLGAITASLQKVENDTSPHRERATLLEEQLPLGKASFHIPQVQVRDEGQYRCIIIYGDAWDYKYLTLKVKA	1600
PD-L2 H15Q/N24S/T47A/Q72H/R76G/V89D IgV-Fc (Fc fusion, not shown: a dimerising Fc or GST) LFTVTVPKELYIIEQGSNVTLECSFDTGSHVNLGAITASLQKVENDASPHRERATLLEEQLPLGKASFHIPHVQVGDEGQYQCIIIYGDAWDYKYLTLKVKA	1090
PD-L2 H15Q/S67L/Q72H/R76G/V89D IgV-Fc (Fc fusion, not shown: a dimerising Fc or GST) LFTVTVPKELYIIEQGSNVTLECNFDTGSHVNLGAITASLQKVENDTSPHRERATLLEEQLPLGKALFHIPHVQVGDEGQYQCIIIYGDAWDYKYLTLKVKA	1060
PD-L2 H15Q/S39I/S67L/V89D IgV-Fc (Fc fusion, not shown: a dimerising Fc or GST) LFTVTVPKELYIIEQGSNVTLECNFDTGSHVNLGAITAILQKVENDTSPHRERATLLEEQLPLGKALFHIPQVQVRDEGQYQCIIIYGDAWDYKYLTLKVKA	1230
